- System: E. coli
- assay.comment: AK assay 384-well format, Prestwick library screening
- Format: cell-based, Escherichia coli
- experimental.parameters: Escherichia coli, 3 h; 50 μM final drug concentration; 384-well format; cutoff for positive-scoring molecules 3-fold increase; read-out: AK-based Prestwick Library Screening Results, E. coli (increase in extracellular AK activity)
measured.parameter: fold induction at 50 µM

Kindly indicate its recorded fold induction at 50 µM. Item: COc1ccc2c(c1)c(CC(=O)O)c(C)n2C(=O)c1ccc(Cl)cc1
0.9

Kindly indicate its recorded fold induction at 50 µM. Item: NC[C@H]1CC[C@H](C(=O)O)CC1
0.8

Kindly indicate its recorded fold induction at 50 µM. Item: C#C[C@]1(O)CC[C@H]2[C@@H]3CCC4=C(CCC(=O)C4)[C@H]3CC[C@@]21C
0.9

----------
Consider the following molecules; for each one, report its IC50.
- study.target: S. aureus DNA gyrase (Staphylococcus aureus, UniProt P0A0K8+P20831)
- Sequence (P0A0K8 whole entry): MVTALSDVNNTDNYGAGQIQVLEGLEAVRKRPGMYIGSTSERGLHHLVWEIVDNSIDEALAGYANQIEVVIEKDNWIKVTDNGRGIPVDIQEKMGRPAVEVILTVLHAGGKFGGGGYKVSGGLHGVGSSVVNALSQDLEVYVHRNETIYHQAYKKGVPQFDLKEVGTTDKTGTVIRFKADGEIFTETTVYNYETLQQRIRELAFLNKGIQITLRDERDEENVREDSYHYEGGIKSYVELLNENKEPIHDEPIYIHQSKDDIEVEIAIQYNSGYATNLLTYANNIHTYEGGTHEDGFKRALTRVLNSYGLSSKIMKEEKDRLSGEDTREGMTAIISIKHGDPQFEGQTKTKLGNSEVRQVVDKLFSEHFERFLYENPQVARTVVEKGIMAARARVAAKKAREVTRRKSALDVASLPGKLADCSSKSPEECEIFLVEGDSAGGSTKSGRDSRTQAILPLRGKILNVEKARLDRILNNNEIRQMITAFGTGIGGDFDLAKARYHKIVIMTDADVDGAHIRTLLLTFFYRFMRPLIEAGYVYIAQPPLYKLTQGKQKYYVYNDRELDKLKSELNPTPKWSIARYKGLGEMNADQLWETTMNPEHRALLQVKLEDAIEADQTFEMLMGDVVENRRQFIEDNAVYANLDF
- Sequence (P20831 whole entry): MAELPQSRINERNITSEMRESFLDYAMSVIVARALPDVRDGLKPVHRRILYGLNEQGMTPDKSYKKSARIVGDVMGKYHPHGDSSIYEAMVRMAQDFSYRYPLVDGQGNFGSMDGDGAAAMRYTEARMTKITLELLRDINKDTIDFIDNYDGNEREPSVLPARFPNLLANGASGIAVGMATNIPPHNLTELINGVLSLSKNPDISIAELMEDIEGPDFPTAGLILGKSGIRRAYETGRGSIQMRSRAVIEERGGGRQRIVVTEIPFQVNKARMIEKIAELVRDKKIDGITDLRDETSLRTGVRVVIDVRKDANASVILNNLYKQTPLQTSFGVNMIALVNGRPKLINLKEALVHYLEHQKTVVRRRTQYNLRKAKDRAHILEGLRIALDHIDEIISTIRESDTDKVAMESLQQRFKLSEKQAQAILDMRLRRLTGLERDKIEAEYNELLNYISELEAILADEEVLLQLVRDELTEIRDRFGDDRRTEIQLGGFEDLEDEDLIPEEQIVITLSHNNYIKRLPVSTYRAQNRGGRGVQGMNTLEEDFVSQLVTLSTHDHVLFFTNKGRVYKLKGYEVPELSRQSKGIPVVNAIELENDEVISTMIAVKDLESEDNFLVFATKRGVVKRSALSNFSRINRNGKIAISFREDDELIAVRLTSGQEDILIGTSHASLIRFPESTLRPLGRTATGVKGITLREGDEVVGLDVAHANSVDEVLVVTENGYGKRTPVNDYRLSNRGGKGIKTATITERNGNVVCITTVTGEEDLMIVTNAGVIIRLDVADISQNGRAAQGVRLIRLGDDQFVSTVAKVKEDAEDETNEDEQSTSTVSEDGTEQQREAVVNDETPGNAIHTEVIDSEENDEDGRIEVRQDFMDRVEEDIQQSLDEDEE
- assay.comment: S. aureus DNA gyrase supercoiling assay (TopoGEN)

Kindly indicate its recorded IC50. Item: OC(CCCN1CCC(C(O)(c2ccccc2)c2ccccc2)CC1)c1ccc(Br)cc1 (centres unmarked) [Compound 9]
> 1.01 mM

Kindly indicate its recorded IC50. Item: O=C(O)c1ccc(C(O)CCCN2CCC(C(O)(c3ccccc3)c3ccccc3)CC2)cc1 (centres unmarked) [Compound 19]
> 1.09 mM

Kindly indicate its recorded IC50. Item: OC(CCCN1CCC(C(O)(c2ccccc2)c2ccccc2)CC1)c1ccccc1 (centres unmarked) [Compound 6]
> 1.2 mM

Kindly indicate its recorded IC50. Item: Cc1ccc(C(O)CCCN2CCC(C(O)(c3ccccc3)c3ccccc3)CC2)cc1 (centres unmarked) [Compound 14]
> 1.16 mM

Kindly indicate its recorded IC50. Item: OC(CCCN1CCC(C(O)(c2ccccc2)c2ccccc2)CC1)c1ccc(F)cc1 (centres unmarked) [Compound 8]
> 1.15 mM

Kindly indicate its recorded IC50. Item: CC(C)(C)c1ccc(C(O)CCCN2CCC(Cc3ccccc3)CC2)cc1 (centres unmarked) [Compound 40]
> 0.877 mM

Kindly indicate its recorded IC50. Item: COc1ccc(C(O)CCCN2CCC(C(O)(c3ccccc3)c3ccccc3)CC2)cc1 (centres unmarked) [Compound 7]
> 1.12 mM

Kindly indicate its recorded IC50. Item: CC(C)(C)c1ccc(CCN2CCC(C(O)(c3ccccc3)c3ccccc3)CC2)cn1 [Compound 43]
> 0.777 mM

Kindly indicate its recorded IC50. Item: COc1ccc(CCN2CCC(C(O)(c3ccccc3)c3ccccc3)CC2)cc1 [Compound 28]
> 0.829 mM

Kindly indicate its recorded IC50. Item: OC(c1ccccc1)(c1ccccc1)C1CCN(CCc2ccc(F)cc2)CC1 [Compound 38]
> 0.855 mM

Kindly indicate its recorded IC50. Item: CN(C)c1ccc(CCN2CCC(C(O)(c3ccccc3)c3ccccc3)CC2)cc1 [Compound 36]
> 0.803 mM

----------
- Test system: E. coli
- assay.comment: AK assay 384-well format, Prestwick library screening
- Assay type: cell-based, Escherichia coli
- experimental.parameters: Escherichia coli, 3 h; planktonic E. coli; 50 μM final drug concentration; cutoff for positive-scoring molecules 3-fold increase; read-out: AK-based Prestwick Library Screening Results, E. coli (increase in extracellular AK activity)
measured.parameter: fold induction at 50 µM
Answer with a bare number; do not write a unit.

Using E. coli as the test system, report measured fold induction at 50 µM of CC1=C(C(=O)O)N2C(=O)[C@@H](NC(=O)[C@H](N)c3ccc(O)cc3)[C@H]2SC1 .
0.9

Using E. coli as the test system, report measured fold induction at 50 µM of CN1CCN(C2=Nc3cc(Cl)ccc3Nc3ccccc32)CC1 .
0.9

Using E. coli as the test system, report measured fold induction at 50 µM of O=C(NCCN1CCOCC1)c1ccc(Cl)cc1 [Moclobemide] .
0.9
